Target: RBD/ACE2 interaction (UniProt P0DTC2+Q9BYF1, L452R/T478K)
Assay: cell-based
value kind: pIC50
Please express pIC50 as -log10 of the molar concentration.

Kindly note the recorded pIC50 for O=c1c(O)cc([C@H]2Oc3cc(O)cc(O)c3C[C@H]2O)cc2c([C@H]3Oc4cc(O)cc(O)c4C[C@H]3O)cc(O)c(O)c12 , which is 4.91

Reference source: paper PMC11154727
